Cited source for all entries: patent US20240400708A1

target: feline FcRn complex (FcRn-α subunit and β-microglobulin), biotin labeled (feline); assay: SPR, pH 6
Reported Property: pKd
# log scale: pKd equals minus log10 of the concentration in mol/L

Reported pKd for feline IgG1a H436M (antibody, part only; not given: Variable domains, not shown: another chain or arm of the molecule) constant: ASTTAPSVFPLAPSCGTTSGATVALACLVLGYFPEPVTVSWNSGALTSGVHTFPAVLQASGLYSLSSMVTVPSSRWLSDTFTCNVAHPPSNTKVDKTVRKTDHPPGPKPCDCPKCPPPEMLGGPSIFIFPPKPKDTLSISRTPEVTCLVVDLGPDDSDVQITWFVDNTQVYTAKTSPREEQFNSTYRVVSVLPILHQDWLKGKEFKCKVNSKSLPSPIERTISKAKGQPHEPQVYVLPPAQEELSRNKVSVTCLIKSFHPPDIAVEWEITGQPEPENNYRTTPPQLDSDGTYFVYSKLSVDRSHWQRGNTYTCSVSHEALHSHMTQKSLTQSPGK was 8.08
